Below are Ki values measured for hCA I (Homo sapiens, UniProt P00915).
REPORTED_PROPERTY: Ki (nM)

Consider the following illustrative entries.
>  <MOLECULE>
COc1cc(C=NNC(=O)CSc2nc3ccccc3c(=O)n2CCc2ccc(S(N)(=O)=O)cc2)ccc1O [Compound 14]

>  <VALUE_MEASURED>
857

$$$$
>  <MOLECULE>
COc1ccc(C=NNC(=O)CSc2nc3ccccc3c(=O)n2CCc2ccc(S(N)(=O)=O)cc2)cc1OC [Compound 12]

>  <VALUE_MEASURED>
1060

$$$$
>  <MOLECULE>
COc1ccc(C(C)=NNC(=O)CSc2nc3ccccc3c(=O)n2CCc2ccc(S(N)(=O)=O)cc2)cc1OC [Compound 19]

>  <VALUE_MEASURED>
825

$$$$
>  <MOLECULE>
NS(=O)(=O)c1ccc(CCn2c(SCC(=O)NN=Cc3cccc(O)c3)nc3ccccc3c2=O)cc1 [Compound 6]

>  <VALUE_MEASURED>
957

$$$$
>  <MOLECULE>
COc1ccc(C=NNC(=O)CSc2nc3ccccc3c(=O)n2CCc2ccc(S(N)(=O)=O)cc2)cc1 [Compound 10]

>  <VALUE_MEASURED>
558

$$$$

[P] NS(=O)(=O)c1ccc(CCn2c(SCC(=O)NN=Cc3ccc(O)cc3)nc3ccccc3c2=O)cc1 [Compound 7]
[Q] COc1ccc(OC)c(C(C)=NNC(=O)CSc2nc3ccccc3c(=O)n2CCc2ccc(S(N)(=O)=O)cc2)c1 [Compound 20]
**Query** Field: lower recorded Ki (choose P or Q ) Output the label that corresponds to your choice.
**Result** P
(P: 665 nM, Q: 1690 nM)
